# Procedure details: Human HepG2 cell viability assay in 384 well format
# Assay type: toxicity, cell-based
# Design: dose 125 nL, time 70.5 hour; concentration not given beside the values
# Condition summary: HepG2 cells, read-out: Inhibition
Please respond with reported cytotoxicity at 70.5 h for every item in the list.
One number for each entry, in %.

# return cytotoxicity at 70.5 h for each item in the list
1. CC(C)Cc1nnc(SCC(=O)O)n1-c1ccc(F)cc1F
2. CC(C)(C(=O)N1CCC(CS(N)(=O)=O)CC1)c1ccccc1F
3. COc1c(C2CCCN2C(=O)c2cccn2C)c(C)nn1C (configuration not stated)
4. Cc1ccn(-c2ccccc2NCc2ccccn2)n1
5. Cc1cc(C)cc(CCC(=O)N2CCN(c3cc(C)nc(N)n3)CC2)c1
6. O=C(NC1(c2cccc(F)c2)CCOCC1)c1ccccn1
7. CO[C@H]1CN(C(=O)c2cc3ccccc3[nH]2)CC[C@H]1N

(A)
[5.45, 1.82, 13.8, -8, 6.95, 12, 18.2]

# return cytotoxicity at 70.5 h for each item in the list
1. O=C(c1cnccn1)N1CCc2onc(CN3CCOCC3)c2C1
2. C[S+]([O-])c1ccc(NC(=O)Cc2cccnc2)cc1F (configuration not stated)
3. Cc1cc(N2CCCN(c3ccnc(C)c3)CC2)ccn1
4. CCOc1nnc(CN(CC)CC(=O)Nc2c(F)cccc2F)s1
5. Cc1cccc(Oc2ccccc2CNC(=O)C2CCC(=O)NC2)c1 (configuration not stated)

(A)
[23.2, 11.1, -7.78, -5.55, -10.6]

* * *

Please respond with reported cytotoxicity at 70.5 h for every item in the list.
# Procedure details: Human HepG2 cell viability assay in 384 well format
# Format: toxicity, cell-based
# Design: dose 125 nL, time 70.5 hour; concentration not given beside the values
# Condition summary: HepG2 cells, read-out: Inhibition
Give bare numbers, in %.

Example entries and their recorded answers appear below.
Compound | cytotoxicity at 70.5 h (%)
Cc1nn(CC(=O)O)c(C)c1NS(=O)(=O)c1cccc2ccccc12 | -6.18
COc1ccccc1CC(=O)NC(C)c1nc2cccnc2n1C(C)C (centres undefined) | -1.11
COc1ccc(CN(Cc2ccco2)Cc2[nH]cnc2C)c(OC)c1 | -8.31
CC(=O)NCC(=O)N1Cc2nccn2CC(COc2cccnc2)C1 (centres undefined) | -10.5
CCc1noc(CN2CCN(C(=O)C3CC3)CC2)n1 | -9.23

# return cytotoxicity at 70.5 h for each item in the list
1. COc1nccnc1-c1cc(NC2CCNCC2)nc2[nH]ccc12
2. Cc1cc(CN2CCC3(CC2)CC(C(=O)O)N(C(=O)C2CC2)C3)oc1C (centres undefined)
3. CC(C)N1CCC(C(=O)N[C@H](C(=O)O)c2cccc(F)c2F)CC1
4. CCOCC1CCCN(C(=O)NCc2cn3c(C)cccc3n2)C1 (centres undefined)
5. CCCN(C(=O)c1cc2c([nH]c1=O)CCCC2=O)C1CCCCC1
6. Cc1ccc(-c2nc(CNC3CCc4ncnn4C3)cs2)cc1 (centres undefined)
7. CC(=O)N1CCCC1c1csc(Nc2cnccn2)n1 (centres undefined)
8. CC(C)CN1Cc2c(C(=O)N(C)C)ncn2-c2ccccc2S1(=O)=O

(A)
1. -0.195
2. -13.7
3. -1.13
4. 9.89
5. 27.9
6. 2.93
7. -4.91
8. -6.58

# return cytotoxicity at 70.5 h for each item in the list
1. COc1c(CNCc2cccc(C(=O)N(C)C)c2)c(C)nn1C
2. CCN(CC)c1ncccc1CNCc1ccc(-c2ccn[nH]2)s1
3. Cc1ccccc1CC(=O)N1C[C@@H](O)[C@H](N2CCOCC2)C1

(A)
1. 5.09
2. -6.37
3. 3.85
